System Under Test: T1, human IL-23R endogenously expressed on DB cells (CRL-2289) (human, UniProt Q5VWK5 24-629)
T1 sequence (looked up): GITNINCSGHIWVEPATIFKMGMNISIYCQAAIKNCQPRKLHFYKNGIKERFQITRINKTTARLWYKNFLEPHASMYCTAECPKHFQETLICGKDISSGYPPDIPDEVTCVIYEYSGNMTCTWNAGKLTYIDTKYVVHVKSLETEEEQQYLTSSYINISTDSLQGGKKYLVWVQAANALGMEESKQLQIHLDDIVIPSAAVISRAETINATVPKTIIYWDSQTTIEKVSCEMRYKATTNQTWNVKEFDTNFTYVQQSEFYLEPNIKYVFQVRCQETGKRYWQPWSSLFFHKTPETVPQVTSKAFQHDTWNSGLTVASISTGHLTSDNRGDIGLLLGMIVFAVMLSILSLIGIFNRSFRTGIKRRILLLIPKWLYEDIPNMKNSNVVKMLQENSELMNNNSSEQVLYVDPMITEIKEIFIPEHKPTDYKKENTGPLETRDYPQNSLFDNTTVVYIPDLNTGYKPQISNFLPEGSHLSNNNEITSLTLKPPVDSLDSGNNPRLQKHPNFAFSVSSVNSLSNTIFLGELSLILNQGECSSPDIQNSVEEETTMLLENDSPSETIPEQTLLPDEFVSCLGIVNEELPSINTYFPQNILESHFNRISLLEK
Assay Explanation: cell-based or functional assay
*1 amine or outer side, *2 acyl side, *3 side chain or, on linkers, in order; H or OH if unused. Bridges are numbered along the chain shown (N, C = ends). Where no end group is shown, it is not given here. [ ]: non-standard residue; d: D form. 2Nal = N[C@@H](Cc1ccc2ccccc2c1)C(=O)O; AEF = NCCOc1ccc(C[C@H](N)C(=O)O)cc1; αMeL = CC(C)C[C@](C)(N)C(=O)O; CH2COCH2 = O=C(C[*:1])C[*:2]; 3Amb = NCc1cccc(C(=O)O)c1; Orn = NCCC[C@H](N)C(=O)O
Readout Name: IC50 (pSTAT3)

Consider the worked cases shown below.
[3Amb]SEWQ[Orn][AEF][2Nal][αMeL]ER-NH2 (lactam (positions not given here); lactam 3-6; not fully specified (bridges); printed as [(3-Aminomethyl)benzoyl](1c)*SE(2c)WQ[Orn](2c)[Y(2-aminoethoxy)][2-Nal][2-Me-Leu]E(1c)R-[NH2]) [Compound 69]	41.1 nM
Ac-KSCWQC[AEF][2Nal][αMeL]E[dR]-NH2 (lactam 1-10; linker 3-6 via CH2COCH2; SMILES CC(=O)N[C@H]1CCCCNC(=O)CC[C@@H](C(=O)N[C@H](CCCNC(=N)N)C(N)=O)NC(=O)[C@](C)(CC(C)C)NC(=O)[C@H](Cc2ccc3ccccc3c2)NC(=O)[C@H](Cc2ccc(OCCN)cc2)NC(=O)[C@@H]2CSCC(=O)CSC[C@H](NC(=O)[C@H](CO)NC1=O)C(=O)N[C@@H](Cc1c[nH]c3ccccc13)C(=O)N[C@@H](CCC(N)=O)C(=O)N2) [Compound 84]	12.5 nM

In plain terms, Ac-DCQCWQCYW[αMeL]CR-NH2 (linker 2-11, 4-7 via CH2COCH2) [Compound 63] has a documented IC50 (pSTAT3) of > 1 µM
